Source of measurements: patent US20040009571A1

measured target: the molecule itself
experiment description: analytical ultracentrifugation, sedimentation equilibrium; self-association
measure: molecular weight by sedimentation equilibrium

Lookup result for STAT1 N-domain (Q41A) (other, human, UniProt P42224 1-124, looked up, range 1-124; Interface I mutant; GST fusion cleaved with TEV protease) MSQWYELQQLDSKFLEQVHQLYDDSFPMEIRQYLAQWLEKADWEHAANDVSFATIRFHDLLSQLDDQYSRFSLENNFLLQHNIRKSKRNLQDNFQEDPIQMSMIIYSCLKEERKILENAQRFNQ ; measured molecular weight by sedimentation equilibrium: ~27 kDa

Lookup result for STAT1 N-domain (Q8A) (other, human, UniProt P42224 1-124, looked up, range 1-124; Interface II mutant; GST fusion cleaved with TEV protease) MSQWYELAQLDSKFLEQVHQLYDDSFPMEIRQYLAQWLEKQDWEHAANDVSFATIRFHDLLSQLDDQYSRFSLENNFLLQHNIRKSKRNLQDNFQEDPIQMSMIIYSCLKEERKILENAQRFNQ ; measured molecular weight by sedimentation equilibrium: ~27 kDa
